# assay_explanation: clinical
# reported_conditions: human, plasma, po, 300 mg
measure_name: Cmax (ng/mL)
Answer with a number only, understood to be in ng/mL.

Input line: May I ask what Cmax has been recorded for NC(=O)c1cccc2cn(-c3ccc([C@@H]4CCCNC4)cc3)nc12 ?
Output line: 1270

====

# assay_explanation: clinical
# reported_conditions: human, plasma, po, 300 mg, t max, oral 300 mg niraparib, n = 6, median and range
measure_name: t max (h)
Answer with a number only, understood to be in h.

Input line: May I ask what t max has been recorded for NC(=O)c1cccc2cn(-c3ccc([C@@H]4CCCNC4)cc3)nc12 ?
Output line: 4

====

# assay_explanation: clinical
# reported_conditions: human, plasma, oral, 300 mg
measure_name: bioavailability (%)
Answer with a number only, understood to be in %.

Input line: May I ask what bioavailability has been recorded for NC(=O)c1cccc2cn(-c3ccc([C@@H]4CCCNC4)cc3)nc12 ?
Output line: 72.7

====

# assay_explanation: clinical
# reported_conditions: human, plasma, po, 300 mg
# Method: Signed and dated written informed consent was obtained from each patient before participation in the study and before the performance of any procedures. […] The radiolabelled dose contained approximately 100 nCi (3.7 kBq) radioactivity and was administered into one arm of the subject; the contralateral arm was used for pharmacokinetic sampling and clinical laboratory blood draws. […] Total ^14C-radioactivity concentrations in plasma samples were determined using AMS. […]
measure_name: AUC(0-t)
Express the reported value numerically, then name its unit.

Input line: May I ask what AUC(0-t) has been recorded for NC(=O)c1cccc2cn(-c3ccc([C@@H]4CCCNC4)cc3)nc12 [niraparib] ?
Output line: 46900 ng·h/mL
